molecular target: A disintegrin and metalloproteinase with thrombospondin motifs 5 (Homo sapiens, UniProt Q9UNA0); test: Inhibition of human His-tagged ADAMTS-5 using QF-peptide as substrate by FRET method
Sequence (Q9UNA0 whole entry): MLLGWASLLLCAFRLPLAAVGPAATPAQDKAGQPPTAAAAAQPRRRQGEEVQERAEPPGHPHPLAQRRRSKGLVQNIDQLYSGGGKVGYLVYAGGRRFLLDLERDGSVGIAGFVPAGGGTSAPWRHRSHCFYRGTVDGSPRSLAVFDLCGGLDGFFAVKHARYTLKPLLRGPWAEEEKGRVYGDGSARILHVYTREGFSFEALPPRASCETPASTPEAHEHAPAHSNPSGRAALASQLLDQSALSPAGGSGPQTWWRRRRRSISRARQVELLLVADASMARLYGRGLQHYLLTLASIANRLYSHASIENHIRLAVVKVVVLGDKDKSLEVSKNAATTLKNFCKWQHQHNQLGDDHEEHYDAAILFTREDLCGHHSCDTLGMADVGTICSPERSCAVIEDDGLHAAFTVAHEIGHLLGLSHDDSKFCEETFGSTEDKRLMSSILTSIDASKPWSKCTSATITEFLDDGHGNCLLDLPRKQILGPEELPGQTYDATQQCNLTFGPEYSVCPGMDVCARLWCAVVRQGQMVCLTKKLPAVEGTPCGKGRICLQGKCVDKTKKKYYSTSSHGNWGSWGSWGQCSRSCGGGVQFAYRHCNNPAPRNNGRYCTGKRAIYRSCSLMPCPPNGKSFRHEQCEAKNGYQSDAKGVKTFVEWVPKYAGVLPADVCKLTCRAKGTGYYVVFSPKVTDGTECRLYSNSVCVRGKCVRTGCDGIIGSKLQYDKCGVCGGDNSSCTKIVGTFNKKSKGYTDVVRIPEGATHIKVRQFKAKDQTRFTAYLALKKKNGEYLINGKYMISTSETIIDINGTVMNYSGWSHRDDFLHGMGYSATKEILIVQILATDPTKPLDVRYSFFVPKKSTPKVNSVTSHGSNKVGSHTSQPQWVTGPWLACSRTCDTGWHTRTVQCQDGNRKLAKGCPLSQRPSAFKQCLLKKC
pIC50: −log10 of the molar value.
Response key: Met means pIC50 >= 6; Not met means pIC50 < 6.

INSERT INTO measurements (sample_smiles, class_label) VALUES
  ('O=C(O)Cc1sc(/C=C2\NC(=O)CS2)nc1O', 'Not met'),
  ('O=C(O)CCc1sc(/C=C2\NC(=O)CS2)nc1-c1ccc(Br)cn1', 'Met'),
  ('CN(C)C(=O)Cc1sc(/C=C2\NC(=O)CS2)nc1-c1ccccc1', 'Not met');

Query: // inclusive: pIC50 at least 6? input: O=C(O)Cc1sc(/C=C2\NC(=O)CS2)nc1-c1ccc(Cl)cc1
Reply: Not met

Query: // inclusive: pIC50 at least 6? input: O=C(O)Cc1sc(/C=C2\NC(=O)CS2)nc1-c1cccs1
Reply: Not met

All values here come from ChEMBL document CHEMBL2346648.
